Collected IC50 values appear next to each entry.
Target: S. aureus PhoR (PhoR^S) (Staphylococcus aureus)
Sequence (Q2FXN7 entry or part of it): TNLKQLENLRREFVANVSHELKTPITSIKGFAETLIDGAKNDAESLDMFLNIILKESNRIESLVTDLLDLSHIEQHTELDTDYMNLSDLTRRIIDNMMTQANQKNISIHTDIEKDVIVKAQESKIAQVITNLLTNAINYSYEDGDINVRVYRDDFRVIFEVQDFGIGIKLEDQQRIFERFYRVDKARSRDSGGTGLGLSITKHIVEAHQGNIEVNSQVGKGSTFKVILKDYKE
Assay: In vitro autophosphorylation kinase assay with γ-32P-ATP, PhoR^S
Assay type: biochemical
Details: read-out: IC50 PhoR^S; autophosphorylation, one time point (30 sec), 10% DMSO
reported metric: IC50

INSERT INTO assay_data (molecule, reported_metric, endpoint_result) VALUES
  ('c1ccc2cc(CNc3ccc4c(c3)OCCO4)ccc2c1 [S7]', 'IC50', '< 5000 µM'),
  ('CC(=O)Nc1cccc(C=Cc2ccc([N+](=O)[O-])cc2)c1 [S1.11]', 'IC50', '< 2000 µM'),
  ('CC(C)(C)c1ccc(NS(=O)(=O)c2ccc(N)cc2)cc1 [S1.15]', 'IC50', '< 2000 µM'),
  ('CC(=O)Nc1ccc(-c2ccc(F)cc2)cc1 [S1.2]', 'IC50', '< 2000 µM'),
  ('CC(NCc1cccc2ccccc12)c1ccc(F)cc1 (centres unmarked) [S8]', 'IC50', '< 5000 µM');
